Hi there, I'd appreciate the recorded GI50 for every entry that follows.
# Test system: TK-10
# protocol notes: NCI 60 growth inhibition
# Assay type: cell-based, human
# condition notes: Homo sapiens; TK-10, Renal Cancer, Table 2
Provide only the numeric value, understood in nM.

GI50 for C=C1C(=O)O[C@H]2[C@H]1CC/C(Cn1cc(-c3cccc(Cl)c3)nn1)=C\CC[C@@]1(C)O[C@@H]21 [JVM 4-25] is 990

Reported GI50 ( C=C1C(=O)O[C@H]2[C@H]1CC/C(Cn1cc(CCC)nn1)=C\CC[C@@]1(C)O[C@@H]21 [JVM 4-16] ) = 3860

The recorded GI50 for entry C=C1C(=O)O[C@H]2[C@H]1CC/C(Cn1cc(-c3ccc(OC)cc3)nn1)=C\CC[C@@]1(C)O[C@@H]21 [JVM 4-24] equals 1420

Reported GI50 ( C=C1C(=O)O[C@H]2[C@H]1CC/C(Cn1cc(-c3ccccc3)nn1)=C\CC[C@@]1(C)O[C@@H]21 [JVM 3-74] ) = 1210

GI50 reported for this compound C=C1C(=O)O[C@H]2[C@H]1CC/C(Cn1cc(-c3ccc(F)cc3)nn1)=C\CC[C@@]1(C)O[C@@H]21 [JVM 4-26] : 1240

====

# Test system: MDA-MB-231/ATCC
# protocol notes: NCI 60 growth inhibition
# Assay type: cell-based, human
# condition notes: Homo sapiens, Breast Cancer, Table 2
I'd appreciate it if you could supply GI50 values for the items below.
Number in nM, nothing else.

Just so you know, measured GI50 for `C=C1C(=O)O[C@H]2[C@H]1CC/C(Cn1cc(CCC)nn1)=C\CC[C@@]1(C)O[C@@H]21` came out at 4220

# GI50 (molecule: `C=C1C(=O)O[C@H]2[C@H]1CC/C(Cn1cc(-c3ccc(OC)cc3)nn1)=C\CC[C@@]1(C)O[C@@H]21` ) is 1440

// field: GI50; key: `C=C1C(=O)O[C@H]2[C@H]1CC/C(Cn1cc(-c3cc(C(F)(F)F)cc(C(F)(F)F)c3)nn1)=C\CC[C@@]1(C)O[C@@H]21` ; value = 330

Memo: `C=C1C(=O)O[C@H]2[C@H]1CC/C(Cn1cc(-c3ccccc3)nn1)=C\CC[C@@]1(C)O[C@@H]21` , reported GI50: 2000

Notebook: `C=C1C(=O)O[C@H]2[C@H]1CC/C(Cn1cc(-c3ccc(F)cc3)nn1)=C\CC[C@@]1(C)O[C@@H]21` , GI50 read as 1220

GI50 for `C=C1C(=O)O[C@H]2[C@H]1CC/C(Cn1cc(-c3cccc(Cl)c3)nn1)=C\CC[C@@]1(C)O[C@@H]21` is 1090

====

# System: NCI-H522
# protocol notes: NCI 60 growth inhibition
# Type: cell-based, human
# condition notes: Homo sapiens; NCI-H522, Non-Small Cell Lung Cancer, Table 2
readout type: GI50 (nM)
Unit nM implied. Number only.

Note to self: GI50 recorded for C=C1C(=O)O[C@H]2[C@H]1CC/C(Cn1cc(-c3ccc(OC)cc3)nn1)=C\CC[C@@]1(C)O[C@@H]21 [JVM 4-24] was 380

# GI50 (compound: C=C1C(=O)O[C@H]2[C@H]1CC/C(Cn1cc(-c3cccc(Cl)c3)nn1)=C\CC[C@@]1(C)O[C@@H]21 [JVM 4-25] ) is 290

GI50 reading for C=C1C(=O)O[C@H]2[C@H]1CC/C(Cn1cc(-c3ccc(F)cc3)nn1)=C\CC[C@@]1(C)O[C@@H]21 [JVM 4-26] : 250

get_value(item= C=C1C(=O)O[C@H]2[C@H]1CC/C(Cn1cc(-c3ccccc3)nn1)=C\CC[C@@]1(C)O[C@@H]21 [JVM 3-74] , readout=GI50) returns 810

Per the records, this compound ( C=C1C(=O)O[C@H]2[C@H]1CC/C(Cn1cc(CCC)nn1)=C\CC[C@@]1(C)O[C@@H]21 [JVM 4-16] ) has GI50 equal to 3060
